Test system: 299254-011-R-J1-PDC complex spheroids viability;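 also: spheroids exposed to the agents for seven days before readout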
PROTOCOL_TEXT: Anticancer human tumor 299254-011-R-J1-PDC patient-derived melanoma cell line growth inhibition [GQUAD]
ASSAY_SETUP: second compound 10 µM; first compound 10 µM; hits give low values
Source text: DNA G-quadruplex Stabilizer Agents in Combinations in Complex Spheroids A high-throughput screen of multi-cell type tumor spheroids was designed to identify active combinations of DNA G-quadruplex stabilizer agents and targeted small molecules. […] Compounds. […] If the clinical Cmax for an agent had not been determined, the highest concentration tested was 10 microM. […]
Output fulfilled for records whose viability, T/C is lower than 50%, not fulfilled for records at or above 50%.

Illustrative cases are given below, each with its answer.
MOLECULE: C#Cc1c(F)ccc2cc(O)cc(-c3ncc4c(N5CC6CCC(C5)N6)nc(OCC56CCCN5CC(F)C6)nc4c3F)c12 (stereo unspecified) + Cc1[nH]c2ccc(F)cc2c1-c1nc2c3cccnc3c3ncccc3c2[nH]1
CATEGORY: not fulfilled
//
MOLECULE: C=CC(=O)N1CCN(c2nc(=O)n(-c3c(C)ccnc3C(C)C)c3nc(-c4c(O)cccc4F)c(F)cc23)C(C)C1 (stereo unspecified) + Cc1[nH]c2ccc(F)cc2c1-c1nc2c3cccnc3c3ncccc3c2[nH]1
CATEGORY: not fulfilled
//
MOLECULE: CC1COCCN1c1cc(C2(O)CC3CCC(C2)O3)c2cnn(-c3ccn[nH]3)c2n1 (stereo unspecified) + Cc1cnc(CNC(=O)c2c(=O)c3ccc(N4CCCN(C)CC4)nc3n3c2sc2ccccc23)cn1
CATEGORY: fulfilled
//
MOLECULE: O=C(NO)c1cnc(N2CCN(S(=O)(=O)c3ccc4ccccc4c3)CC2)nc1 + Cc1[nH]c2ccc(F)cc2c1-c1nc2c3cccnc3c3ncccc3c2[nH]1
CATEGORY: fulfilled
//
MOLECULE: O=C(c1cc(Cc2n[nH]c(=O)c3ccccc23)ccc1F)N1CCN(C(=O)C2CC2)CC1 + Cc1cnc(CNC(=O)c2c(=O)c3ccc(N4CCCN(C)CC4)nc3n3c2sc2ccccc23)cn1
CATEGORY: fulfilled

Query: Below 50% on viability, T/C? Entry Nc1ccn(C2OC(CO)C(O)C2(F)F)c(=O)n1 (stereo unspecified) + Cc1cnc(CNC(=O)c2c(=O)c3ccc(N4CCCN(C)CC4)nc3n3c2sc2ccccc23)cn1
Response: fulfilled

Query: Field entry: CC1COCCN1c1cc(C2(S(C)(=N)=O)CC2)nc(-c2ccnc3[nH]ccc23)n1 (stereo unspecified) + Cc1[nH]c2ccc(F)cc2c1-c1nc2c3cccnc3c3ncccc3c2[nH]1
Response: fulfilled

Query: Field entry: Cc1cccc(N(C)C(=O)C2C(O)CCN2c2nc(C)cc(C(F)(F)F)c2C#N)c1 (stereo unspecified) + Cc1cnc(CNC(=O)c2c(=O)c3ccc(N4CCCN(C)CC4)nc3n3c2sc2ccccc23)cn1
Response: not fulfilled

Query: Field entry: C=CC(=O)N1CCN(c2nc(=O)n(-c3c(C)ccnc3C(C)C)c3nc(-c4c(O)cccc4F)c(F)cc23)C(C)C1 (stereo unspecified) + CN(C)c1ccc(Nc2c3ccc(NC(=O)CCN4CCCC4)cc3nc3cc(NC(=O)CCN4CCCC4)ccc23)cc1
Response: not fulfilled

Query: Field entry: COc1ncnc(C2CC2)c1-c1ncc2cnn(Cc3ccc(-c4nc(C(F)(F)F)cn4C(C)C)cc3)c2n1 + Cc1cnc(CNC(=O)c2c(=O)c3ccc(N4CCCN(C)CC4)nc3n3c2sc2ccccc23)cn1
Response: fulfilled
